Recorded values, source ChEMBL document CHEMBL4261569.

# Assay method text: Drug excretion in iv dosed human
# Assay type: ADME, organism-based
# Test parameters: in vivo, read-out: Drug excretion
Measure: dose excreted (%)
Kindly provide the numeric value in % only, without the unit symbol.

[ask] Look up dose excreted for this compound: CC(=O)N[C@@H](CS)C(=O)O [ACETYLCYSTEINE]
[reply] 30

###

# Assay method text: AUC in Sprague-Dawley rat at 10 mg/kg, iv or 20 mg/kg, po by LC-MS/MS analysis
# Format: ADME, organism-based
# Test parameters: in vivo
Measure: AUC

[ask] Look up AUC for this compound: "CSC[C@H](NC(C)=O)C(=O)NC1CCCCC1"
[reply] 3080 ng·h/mL

###

# Assay method text: Terminal half life in iv dosed human plasma
# Type: ADME, organism-based
# Test parameters: read-out: beta t1/2 (converted)
Measure: half-life (h)
Kindly provide the numeric value in h only, without the unit symbol.

[ask] Look up half-life for this compound: "CC(=O)N[C@@H](CS)C(=O)O"
[reply] 5.6

###

# Assay method text: Apparent permeability across apical to basolateral side in human Caco2 cells at 10 uM after 1.5 hrs by LC-MS/MS analysis
# Format: ADME, cell-based
# Test parameters: Caco-2
Measure: Papp A→B at 1.5 h, 10 µM (nm/s)
Kindly provide the numeric value in nm/s only, without the unit symbol.

[ask] Look up Papp A→B at 1.5 h, 10 µM for this compound: "CSC[C@H](NC(C)=O)C(=O)NC1CCCCC1"
[reply] 197

###

# Assay method text: Oral bioavailability in human
# Assay type: ADME, organism-based
# Test parameters: in vivo
Measure: bioavailability

[ask] Look up bioavailability for this compound: CC(=O)N[C@@H](CS)C(=O)O [ACETYLCYSTEINE]
[reply] < 5%

###

# Assay method text: Efflux ratio of apparent permeability across basolateral to apical side over apical to basolateral side in human Caco2 cells at 10 uM after 1.5 hrs by LC-MS/MS analysis
# Assay type: ADME, cell-based
# Test parameters: Caco-2
Measure: efflux ratio at 1.5 h, 10 µM
# answer = number (no unit)

[ask] Look up efflux ratio at 1.5 h, 10 µM for this compound: "CSC[C@H](NC(C)=O)C(=O)NC1CCCCC1"
[reply] 1.11
